# System: purified human HDAC6 (Homo sapiens)
# Construct: purchased BPS Bioscience 5006
# Sequence (Q9UBN7 whole entry): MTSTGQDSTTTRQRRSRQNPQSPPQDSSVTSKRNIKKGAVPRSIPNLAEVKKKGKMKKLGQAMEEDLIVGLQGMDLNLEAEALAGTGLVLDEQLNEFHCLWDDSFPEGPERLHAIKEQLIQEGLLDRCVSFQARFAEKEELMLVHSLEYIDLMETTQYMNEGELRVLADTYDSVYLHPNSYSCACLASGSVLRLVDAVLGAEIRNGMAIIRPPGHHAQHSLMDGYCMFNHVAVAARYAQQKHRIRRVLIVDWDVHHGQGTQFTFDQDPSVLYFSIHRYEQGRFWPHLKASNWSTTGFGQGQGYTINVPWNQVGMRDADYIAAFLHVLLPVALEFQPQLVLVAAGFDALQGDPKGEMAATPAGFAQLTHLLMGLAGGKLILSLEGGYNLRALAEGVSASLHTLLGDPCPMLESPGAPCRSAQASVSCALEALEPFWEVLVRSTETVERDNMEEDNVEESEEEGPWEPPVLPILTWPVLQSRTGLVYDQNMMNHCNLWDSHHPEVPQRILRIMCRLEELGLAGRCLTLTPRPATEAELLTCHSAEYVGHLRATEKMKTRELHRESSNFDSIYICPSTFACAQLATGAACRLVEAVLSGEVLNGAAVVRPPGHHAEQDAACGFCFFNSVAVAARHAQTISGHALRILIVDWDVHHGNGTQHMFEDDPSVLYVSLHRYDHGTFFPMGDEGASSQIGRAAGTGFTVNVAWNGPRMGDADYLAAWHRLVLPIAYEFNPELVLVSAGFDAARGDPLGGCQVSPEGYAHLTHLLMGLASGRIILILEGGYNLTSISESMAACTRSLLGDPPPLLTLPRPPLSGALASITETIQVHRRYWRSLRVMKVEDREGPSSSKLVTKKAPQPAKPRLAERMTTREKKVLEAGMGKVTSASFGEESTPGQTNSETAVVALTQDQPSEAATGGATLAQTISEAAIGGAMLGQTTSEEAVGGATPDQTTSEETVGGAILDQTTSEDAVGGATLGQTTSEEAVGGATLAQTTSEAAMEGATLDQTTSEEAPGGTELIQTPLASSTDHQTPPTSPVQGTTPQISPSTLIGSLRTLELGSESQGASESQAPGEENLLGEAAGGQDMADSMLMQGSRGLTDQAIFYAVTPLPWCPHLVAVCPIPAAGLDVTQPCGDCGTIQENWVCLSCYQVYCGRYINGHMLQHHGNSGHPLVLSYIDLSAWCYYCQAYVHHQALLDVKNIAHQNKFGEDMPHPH
# Measurement notes: HDAC6 Enzyme Assay
# Type: biochemical
# Protocol conditions: compound concentration 0.412 μM, read-out: Percent Inhibition
Entries annotated with measured inhibition at 0.412 µM
Your answer is read as %, so omit the unit and give the number.

{"Chemical string": "CS(=O)(=O)c1ccccc1OCc1nc2cc(C(=O)NO)ccc2c(=O)[nH]1", "inhibition at 0.412 µM [%]": 56.5}
{"Chemical string": "O=C(NO)c1ccc2c(=O)[nH]cnc2c1", "inhibition at 0.412 µM [%]": 76.8}
{"Chemical string": "Cc1cc(C)cc(Cn2ccc3ccc(C(=O)NO)cc3c2=O)c1", "inhibition at 0.412 µM [%]": 94.4}
{"Chemical string": "Cc1cccc(OCc2nc3cc(C(=O)NO)ccc3c(=O)[nH]2)c1", "inhibition at 0.412 µM [%]": 85.2}

In: Item CS(=O)(=O)c1ccccc1OCCCn1ccc2ccc(C(=O)NO)cc2c1=O : provide inhibition at 0.412 µM
Out: 96.2

In: Read the entry O=C(NO)c1ccc2ccn(Cc3cccc(F)c3F)c(=O)c2c1 and write its reported inhibition at 0.412 µM.
Out: 93.7

In: Indicate the recorded inhibition at 0.412 µM value for this molecule: O=C(NO)c1ccc2c(=O)[nH]c(COc3ccc(-n4ccnc4)cc3)nc2c1
Out: 80.7

In: Return inhibition at 0.412 µM (reported value) for this molecule: O=C(NO)c1ccc2ccn(Cc3c(F)cc(F)cc3F)c(=O)c2c1
Out: 94.3

In: Return value of inhibition at 0.412 µM for input O=C(NO)c1ccc2c(=O)n(Cc3ccccc3)c(=O)[nH]c2c1 , no commentary.
Out: 36.1
